This listing pairs molecules with measured CC50 at 96 h.
Experiment: Cytotoxicity against human Lunet cells expressing ET subgenomic replicon after 4 days by Celltitre-Glo assay
Type: cell-based
readoutLabel: CC50 at 96 h

O=c1ccn([C@@H]2O[C@H](CO)[C@@H](O)[C@]23CCO3)c(=O)[nH]1: > 100 µM
CCCCOC(=O)[C@H](C)N[P@@](=O)(OC[C@H]1O[C@@H](n2cnc3c(OC)nc(N)nc32)[C@@]2(CCO2)[C@@H]1O)Oc1ccccc1: > 20 µM
CCCCOC(=O)[C@H](C)N[P@](=O)(OC[C@H]1O[C@@H](n2cnc3c(OC)nc(N)nc32)[C@@]2(CCO2)[C@@H]1O)Oc1ccccc1: > 20 µM
COC(=O)[C@H](C)NP(=O)(OC[C@H]1O[C@@H](n2ccc(=O)[nH]c2=O)[C@@]2(CCCO2)[C@@H]1O)Oc1ccccc1 (mixture of isomers): > 100 µM
O=c1ccn([C@@H]2O[C@H](CO)[C@@H](O)[C@@]23CCCO3)c(=O)[nH]1: > 100 µM

----------
Molecular target: RNA-directed RNA polymerase (Hepacivirus hominis, UniProt O39930, S282T)
Sequence (O39930 entry or part of it S282T): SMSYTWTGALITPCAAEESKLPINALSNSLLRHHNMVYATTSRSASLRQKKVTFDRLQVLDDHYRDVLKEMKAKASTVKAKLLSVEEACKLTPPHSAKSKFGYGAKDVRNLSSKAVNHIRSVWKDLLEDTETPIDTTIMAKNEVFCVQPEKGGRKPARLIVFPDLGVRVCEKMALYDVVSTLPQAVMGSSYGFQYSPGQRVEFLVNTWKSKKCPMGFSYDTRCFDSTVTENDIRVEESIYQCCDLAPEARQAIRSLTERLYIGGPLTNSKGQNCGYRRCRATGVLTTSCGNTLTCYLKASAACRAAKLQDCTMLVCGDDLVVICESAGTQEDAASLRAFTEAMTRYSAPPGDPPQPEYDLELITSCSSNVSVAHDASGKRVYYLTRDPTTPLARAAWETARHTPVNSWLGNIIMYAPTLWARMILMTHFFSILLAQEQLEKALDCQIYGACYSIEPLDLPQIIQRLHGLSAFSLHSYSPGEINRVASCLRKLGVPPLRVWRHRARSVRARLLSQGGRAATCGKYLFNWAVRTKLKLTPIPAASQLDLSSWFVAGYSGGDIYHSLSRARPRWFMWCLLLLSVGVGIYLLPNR
Experiment: Inhibition of HCV genotype 1b recombinant NS5B RNA dependent RNA polymerase S282T mutant using IRES RNA as substrate after 30 mins by radioactive assay in presence of [alpha32p]UTP
readoutLabel: IC50

Nc1ccn([C@@H]2O[C@H](COP(=O)(O)OP(=O)(O)OP(=O)(O)O)[C@@H](O)[C@]23CCCO3)c(=O)n1: > 100 µM
O=c1ccn([C@@H]2O[C@H](COP(=O)(O)OP(=O)(O)OP(=O)(O)O)[C@@H](O)[C@]23CCO3)c(=O)[nH]1: > 100 µM
Nc1ccn([C@@H]2O[C@H](COP(=O)(O)OP(=O)(O)OP(=O)(O)O)[C@@H](O)[C@]23CCO3)c(=O)n1: > 100 µM
